- system: human KV 1.5 (Homo sapiens, UniProt P22460)
- Construct: expressed in transfected cells; host or cells: mammalian L-929 cells (mouse fibroblast line)
- Sequence (P22460 whole entry): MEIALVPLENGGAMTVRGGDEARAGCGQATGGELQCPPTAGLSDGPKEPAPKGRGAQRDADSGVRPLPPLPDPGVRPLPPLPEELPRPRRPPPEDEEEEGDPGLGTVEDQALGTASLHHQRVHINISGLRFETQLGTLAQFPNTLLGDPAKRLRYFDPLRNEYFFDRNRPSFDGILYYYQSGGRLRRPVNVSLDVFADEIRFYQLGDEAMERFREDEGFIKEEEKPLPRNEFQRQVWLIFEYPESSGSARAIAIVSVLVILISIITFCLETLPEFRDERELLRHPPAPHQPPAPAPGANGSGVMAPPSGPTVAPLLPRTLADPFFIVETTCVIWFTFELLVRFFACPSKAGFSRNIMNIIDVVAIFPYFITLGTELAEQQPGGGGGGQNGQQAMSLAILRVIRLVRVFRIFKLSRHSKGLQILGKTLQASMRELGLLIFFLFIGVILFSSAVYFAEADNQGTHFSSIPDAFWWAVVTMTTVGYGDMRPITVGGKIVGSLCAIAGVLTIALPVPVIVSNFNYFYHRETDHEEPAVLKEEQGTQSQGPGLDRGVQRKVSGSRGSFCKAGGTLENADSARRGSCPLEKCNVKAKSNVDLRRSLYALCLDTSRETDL
- assayRemarks: Block of IKur current in patch clamped L-929 cells expressing human Kv1.5
- Format: cell-based
- conditionsUsed: L929, 0.3 μM; patch clamped mammalian L-929 cells stably expressing human Kv1.5 (IKur); read-out: KV1_5% Inh L929 @0.3 μM
Recorded measurements of inhibition at 0.3 µM, one per entry

>  <smilesRecord>
COc1ccccc1CNc1nnc(-c2cncc(S(N)(=O)=O)c2)c2cccc(-c3ccccc3)c12

>  <measureUnit>
%

>  <inhibition at 0.3 µM>
72.5

$$$$
>  <smilesRecord>
NS(=O)(=O)c1cncc(-c2nnc(NCc3ccccc3F)c3c(-c4ccccc4)cccc23)c1

>  <measureUnit>
%

>  <inhibition at 0.3 µM>
87.4

$$$$
>  <smilesRecord>
COc1ncc(-c2nnc(NCc3ccccc3)c3c(-c4ccccc4)cccc23)cn1

>  <measureUnit>
%

>  <inhibition at 0.3 µM>
93.1

$$$$

The measured values listed here are drawn from patent US9242966B2.
